Target Desc: full-length beta-Catenin (Uniprot ID P35222) (Homo sapiens, UniProt P35222)
Construct: 10 nM full-length beta-Catenin (Uniprot ID P35222)
Sequence (P35222 whole entry): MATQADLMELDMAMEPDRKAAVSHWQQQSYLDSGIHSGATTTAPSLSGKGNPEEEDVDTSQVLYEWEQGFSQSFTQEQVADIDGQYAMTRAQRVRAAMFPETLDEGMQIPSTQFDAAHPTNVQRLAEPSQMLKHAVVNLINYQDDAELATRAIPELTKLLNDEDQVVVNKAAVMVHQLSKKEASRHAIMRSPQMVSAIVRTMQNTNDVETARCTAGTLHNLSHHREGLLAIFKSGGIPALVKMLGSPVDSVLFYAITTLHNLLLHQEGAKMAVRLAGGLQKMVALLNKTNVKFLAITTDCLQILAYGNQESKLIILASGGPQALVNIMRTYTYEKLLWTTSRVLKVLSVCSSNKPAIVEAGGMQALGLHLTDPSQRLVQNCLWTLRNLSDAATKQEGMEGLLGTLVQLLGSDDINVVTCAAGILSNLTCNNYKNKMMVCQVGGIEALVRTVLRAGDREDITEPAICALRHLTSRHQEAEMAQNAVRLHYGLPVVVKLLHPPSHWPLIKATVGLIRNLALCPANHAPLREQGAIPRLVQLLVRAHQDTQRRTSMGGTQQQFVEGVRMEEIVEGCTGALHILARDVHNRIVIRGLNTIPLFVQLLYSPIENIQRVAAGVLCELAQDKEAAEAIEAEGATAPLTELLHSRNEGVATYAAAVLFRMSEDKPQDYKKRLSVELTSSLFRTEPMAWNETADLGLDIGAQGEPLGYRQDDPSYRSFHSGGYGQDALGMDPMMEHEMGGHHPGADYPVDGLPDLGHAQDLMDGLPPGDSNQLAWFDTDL
Assay Overview: Fluorescence polarization IC50 (beta-catenin / 5FAM-TCF4 10-53 competition)
Assay type: binding
Experimental Conditions: fluorescence polarization; read-out: beta-Catenin FP IC50
pIC50: −log10 of the molar value.
Assign class by pIC50: not lower than 6 means Criterion met; lower than 6 means Criterion not met.

1. CC(=O)N1CCC[C@]12CC=CCCCC1(CCCC=CCCCOC(=O)N3CC[C@@](C(=O)N[C@@H](Cc4ccccc4Cl)C(=O)N[C@@H](Cc4csc5ccccc45)C(=O)N[C@@H](CCC(N)=O)C(N)=O)(C3)NC(=O)[C@H](CC(C)C)NC(=O)[C@H](Cc3ccccc3)NC(=O)[C@H](C)NC(=O)CNC(=O)[C@H](Cc3cccc(C(=O)O)c3)NC(=O)[C@H](CC(=O)O)NC1=O)NC(=O)[C@H](CC(C)(C)C)NC(=O)[C@H](CC(=O)O)NC2=O (some centres unmarked) [I-1684]; Criterion met
2. CC(=O)N1CCC[C@]12CC=CCCCC1(CCCC=CCCCOC(=O)N3CC[C@@](C(=O)N[C@@H](Cc4cccc(-c5ccccc5)c4)C(=O)N[C@@H](CC4CCC4)C(=O)N[C@@H](CCC(N)=O)C(N)=O)(C3)NC(=O)[C@H](CC(C)C)NC(=O)[C@H](Cc3ccccc3)NC(=O)[C@H](C)NC(=O)[C@H](C)NC(=O)[C@H](Cc3cccc(C(=O)O)c3)NC(=O)[C@H](CC(=O)O)NC1=O)NC(=O)[C@H](CC(C)(C)C)NC(=O)[C@H](CC(=O)O)NC2=O (some centres unmarked) [I-2255]; Criterion not met
3. CC(=O)N1CCC[C@]12CC=CCCCC1(CCCC=CCOC(=O)N(C)CCC[C@@](C)(C(=O)N[C@@H](Cc3cccc(F)c3)C(=O)N[C@@H](Cc3csc4ccccc34)C(=O)N[C@@H](CCC(N)=O)C(N)=O)NC(=O)[C@H](CCC(N)=O)NC(=O)[C@H](Cc3cccc(C)c3)NC(=O)[C@H](C)NC(=O)[C@H](C)NC(=O)[C@H](CN(CC(=O)O)CC(F)(F)F)NC(=O)[C@H](CC(=O)O)NC1=O)NC(=O)[C@H](C)NC(=O)[C@H](CC(=O)O)NC2=O (some centres unmarked) [I-405]; Criterion not met

Lab note: next compound to report on.
QUERY: hey, is pIC50 for this one >= 6? CC(=O)N1CCC[C@]12CC=CCCCC1(CCCC=CCCCOC(=O)N3CC[C@@](C(=O)N[C@@H](Cc4ccsc4)C(=O)N[C@@H](Cc4csc5ccccc45)C(=O)N[C@@H](CCC(N)=O)C(N)=O)(C3)NC(=O)[C@H](CC(C)C)NC(=O)[C@H](Cc3ccccc3)NC(=O)[C@H](CCCCNC(=O)CC[C@@H](C)[C@H]3CC[C@H]4[C@@H]5CC[C@@H]6C[C@H](O)CC[C@]6(C)[C@H]5CC[C@]34C)NC(=O)[C@H](C)NC(=O)[C@H](CC(=O)O)NC(=O)[C@H](CC(=O)O)NC1=O)NC(=O)[C@H](CC(C)(C)C)NC(=O)[C@H](CC(=O)O)NC2=O (some centres unmarked) [I-1473]
RESULT: Criterion met
